Tested on: RSV (resp syncitial virus)
protocol details: microbe, parasite or virus in culture
Type: cell-based
measurement context: read-out: EC50 RSV
property: EC50 (µM)
State the answer as a number, implicitly in µM.

# EC50 (compound: `CC(C)n1ncc2c(C(=O)Nc3ccc(F)cc3)cc(-c3ccsc3)nc21` ) is 7

Form: compound = `CC(C)n1ncc2c(C(=O)Nc3ccc(F)cc3)cc(-c3cccs3)nc21` ; EC50 = 69

Sample `CC(C)n1ncc2c(C(=O)Nc3ccccc3F)cc(-c3cccs3)nc21` ; EC50 observed: 3.4

====

protocol details: in vitro
measurement context: dog
property: CC50

Reported CC50 ( NC(=O)c1ncn([C@@H]2O[C@H](CO)[C@@H](O)[C@H]2O)n1 [Ribavirin, reference compound] ) = > 320 µM

====

Recorded below: CC50, system LLC cells.
Entry rule: numbers only, all in µM.

Briefly, CC50 measured for `CC(C)n1ncc2c(C(=O)Nc3cncnc3)cc(-c3cccs3)nc21` : 20

# compound `CC(C)n1ncc2c(C(=O)Nc3cccc(S(N)(=O)=O)c3)cc(-c3cccs3)nc21` ; its CC50 = 25

Summary for this compound, `CC(C)n1ncc2c(C(=O)N3CCc4cccnc43)cc(-c3cccs3)nc21` : CC50 is 50

So, `CC(C)n1ncc2c(C(=O)Nc3ccccc3F)cc(-c3cncs3)nc21` ? Its CC50 was 100

Reported CC50 for `CC(C)n1ncc2c(C(=O)Nc3cc(S(N)(=O)=O)ccc3F)cc(-c3cccs3)nc21` was 25

Sure, the documented CC50 for `CC(C)n1ncc2c(C(=O)Nc3ccccn3)cc(C3CC3)nc21` is 25

Data point: `CC(C)n1ncc2c(C(=O)Nc3ccc(S(C)(=O)=O)cc3)cc(-c3cccs3)nc21` ; CC50 = 50

The reported CC50 of the compound `CC(C)n1ncc2c(C(=O)Nc3ccccn3)cc(-c3ccsc3)nc21` was 25

====

Parameter 'readout' = CC50; parameter 'system' = LLC cells.

Per the record, `CC(C)n1ncc2c(C(=O)Nc3cc(F)ccc3F)cc(-c3cccs3)nc21` has CC50 of 100 µM

Lab note: `CC(C)n1ncc2c(C(=O)Nc3ncccn3)cc(-c3cccs3)nc21` gave CC50 of 75 µM

Value of CC50 reported for the compound `CC(C)n1ncc2c(C(=O)Nc3c(F)cc(F)cc3F)cc(-c3cccs3)nc21` is > 200 µM

Entry `CC(C)n1ncc2c(C(=O)Nc3cccc(S(=O)(=O)N(C)C)c3)cc(-c3cccs3)nc21` , CC50 reported as > 200 µM

In plain terms, `CC(C)n1ncc2c(C(=O)Nc3cccc(F)c3F)cc(-c3cccs3)nc21` has a documented CC50 of 75 µM

Just so you know, measured CC50 for `CC(C)n1ncc2c(C(=O)Nc3ccc(F)c(F)c3)cc(-c3cccs3)nc21` came out at > 200 µM

Please fill in: CC50 reported for `CC(C)n1ncc2c(C(=O)Nc3ccc(F)cc3)cc(-c3ccco3)nc21` = > 200 µM

The compound listed as `CC(C)n1ncc2c(C(=O)Nc3ccccc3F)cc(-c3ccccn3)nc21` has a reported CC50 of 100 µM

Lab book: CC50 of `CC(C)n1ncc2c(C(=O)Nc3ncccn3)cc(-c3ccsc3)nc21` noted as 50 µM

// recorded CC50 for `CC(C)n1ncc2c(C(=O)Nc3cccnc3)cc(-c3ccsc3)nc21` : 37 µM

Lab book: CC50 of `CC(C)n1ncc2c(C(=O)Nc3ccc(F)cc3)cc(C3CC3)nc21` noted as 12.5 µM

Record `CC(C)n1ncc2c(C(=O)Nc3ccc(F)cc3F)cc(-c3cccs3)nc21` . Reported CC50: > 200 µM

Please fill in: CC50 reported for `CC(C)n1ncc2c(C(=O)Nc3ccccc3F)cc(-c3cccnc3)nc21` = 50 µM

Quick note, CC50 for `CC(C)n1ncc2c(C(=O)Nc3ccc(F)cc3)cc(-c3ccsc3)nc21` landed at > 100 µM

Documented CC50 of `CC(C)n1ncc2c(C(=O)Nc3ccncc3)cc(-c3cccs3)nc21` : 6.25 µM

Query `CC(C)n1ncc2c(C(=O)Nc3ccc(F)cn3)cc(-c3cccs3)nc21` yields CC50 of > 200 µM

Documented CC50 of `CC(C)n1ncc2c(C(=O)Nc3ccccn3)cc(-c3ccccc3)nc21` : 12.5 µM

The compound `CC(C)n1ncc2c(C(=O)Nc3cccc(C(N)=O)c3)cc(-c3cccs3)nc21` showed CC50 equal to 20 µM

Consider `CC(C)n1ncc2c(C(=S)Nc3ccc(F)cc3)cc(-c3cccs3)nc21` . Its measured CC50 is 20 µM

====

System: MA-104
Field: CC50. Provide a value for each of the compounds that follow.
// note: answer is a bare numeric in µM

CC50 of `CC(C)n1ncc2c(C(=O)Nc3ccccc3F)cc(-c3cccs3)nc21` , assay on MA-104, is 4.7

Tested on MA-104: `CC(C)n1ncc2c(C(=O)Nc3ccc(F)cc3)cc(-c3ccsc3)nc21` . Observed CC50: 67.6

====

For each record, write down the corresponding EC50.
System: Enterovirus D68/Fermon
protocol details: Antiviral assay, Enterovirus D68 strain Fermon in RD cells
Format: cell-based

EC50 in this record for CC(C)(C)n1ncc2c(C(=O)Nc3ccccc3F)cc(-c3cccs3)nc21 [JX-013] : 1330 nM

For record CC(C)n1ncc2c(C(=O)Nc3ccncn3)cc(-c3ccsc3)nc21 [JX-059] the listed EC50 is 690 nM

Documented EC50 of CC(C)n1ncc2c(C(=O)Nc3ccc(F)cn3)cc(-c3cccs3)nc21 [JX-075] : < 400 nM

Entry CC(C)n1ncc2c(C(=O)Nc3cc(C(N)=O)ccc3F)cc(-c3cccs3)nc21 [JX-073] — recorded EC50 = < 400 nM

Record CC(C)n1ncc2c(C(=O)Nc3cccc(S(N)(=O)=O)c3)cc(C3CC3)nc21 [JX-055] . Reported EC50: 700 nM

Documented EC50 of CC(C)n1ncc2c(C(=O)Nc3ccccc3F)cc(-c3nccs3)nc21 [JX-007] : 800 nM

So, CC(C)n1ncc2c(C(=O)Nc3ccc(S(C)(=O)=O)cc3)cc(-c3cccs3)nc21 [JX-047] ? Its EC50 was 300 nM

Reported EC50 of CC(C)n1ncc2c(C(=O)Nc3cccnc3)cc(-c3cccs3)nc21 [JX-056] : < 100 nM

Lookup result for CC(C)n1ncc2c(C(=O)N3CCc4cc(F)ccc43)cc(-c3cccs3)nc21 [JX-048] ; measured EC50: 2800 nM

Note to self: EC50 recorded for CC(C)n1ncc2c(C(=O)N3CCc4cccnc43)cc(-c3cccs3)nc21 [JX-076] was 4000 nM

Entry CC(C)n1ncc2c(C(=O)Nc3ccc(F)cc3F)cc(-c3cccs3)nc21 [JX-008] ; EC50 = 330 nM

Briefly, EC50 measured for CC(C)n1ncc2c(C(=O)Nc3ccc(F)cc3)cc(-c3cccs3)nc21 [JX-017] : 330 nM

Just so you know, measured EC50 for CC(C)n1ncc2c(C(=O)Nc3ccccn3)cc(C3CC3)nc21 [JX-071] came out at 1200 nM

Value of measured EC50 for the entry CC(C)n1ncc2c(C(=O)Nc3ccccn3)cc(-c3ccccc3)nc21 [JX-070] : 350 nM

// EC50 value for CC(C)n1ncc2c(C(=O)Nc3cncnc3)cc(-c3cccs3)nc21 [JX-066] : 60 nM

The recorded EC50 for entry CC(C)n1ncc2c(C(=N)Nc3cccnc3)cc(-c3cccs3)nc21 [JX-065] equals 6300 nM

Noted for CC(C)n1ncc2c(C(=O)Nc3cc(S(N)(=O)=O)ccc3F)cc(-c3cccs3)nc21 [JX-068] : its EC50 reads 50 nM

EC50 reported for this compound CC(C)n1ncc2c(C(=O)Nc3cccc(S(=O)(=O)N(C)C)c3)cc(-c3cccs3)nc21 [JX-052] : 570 nM

Entry under test: CC(C)n1ncc2c(C(=N)Nc3ccc(F)cc3)cc(-c3cccs3)nc21 [JX-067] . Its EC50 was 1600 nM

Lab note: CC(C)n1ncc2c(C(=O)Nc3ccccc3F)cc(-c3cccs3)nc21 [JX-001] gave EC50 of 350 nM

The measured EC50 associated with CC(C)n1ncc2c(C(=O)Nc3ccc(F)cc3)cc(-c3ccco3)nc21 [JX-026] reads 1200 nM

====

Provide the recorded CC50 for the entries that follow.
System: HeLa-RW cells
# unit: µM | format: bare number

Result for CC(C)n1ncc2c(C(=O)Nc3ccc(S(C)(=O)=O)cc3)cc(-c3cccs3)nc21 [JX-047] , tested on HeLa-RW cells, CC50: 200

Here CC(C)n1ncc2c(C(=O)Nc3cccnc3)cc(-c3ccsc3)nc21 [JX-060] was tested on HeLa-RW cells, and its CC50 came to 18

For CC(C)n1ncc2c(C(=O)Nc3ccccc3F)cc(-c3ccccc3)nc21 [JX-002] on HeLa-RW cells, measured CC50 was 37.5

# lookup: CC(C)n1ncc2c(C(=O)N3CCc4cc(F)ccc43)cc(-c3cccs3)nc21 [JX-048] on HeLa-RW cells, CC50 = 20

// assay HeLa-RW cells, entry CC(C)n1ncc2c(C(=O)Nc3cccc(S(N)(=O)=O)c3)cc(-c3cccs3)nc21 [JX-025] , CC50 value = 50

For the molecule CC(C)n1ncc2c(C(=O)Nc3ccccn3)cc(C3CC3)nc21 [JX-071] , the measured CC50 on HeLa-RW cells was 25

// returns CC50 for CC(C)n1ncc2c(C(=O)Nc3cccc(S(=O)(=O)N(C)C)c3)cc(-c3cccs3)nc21 [JX-052] with HeLa-RW cells; value = 12

Item: CC(C)n1ncc2c(C(=O)Nc3ccccc3F)cc(-c3cccnc3)nc21 [JX-005] | System: HeLa-RW cells | CC50: 37.5

Reported CC50 (HeLa-RW cells) for entry CC(C)n1ncc2c(C(=O)Nc3ccccc3F)cc(-c3cccs3)nc21 [JX-001] is 12.5

CC(C)n1ncc2c(C(=O)Nc3ncccn3)cc(-c3cccs3)nc21 [JX-041] on HeLa-RW cells gives CC50 = 37.5

So the reported CC50 for CC(C)n1ncc2c(C(=O)Nc3cc(C(N)=O)ccc3F)cc(-c3cccs3)nc21 [JX-073] , on HeLa-RW cells, turned out to be 18.8

Field CC50 (HeLa-RW cells), entry CC(C)n1ncc2c(C(=O)Nc3ccccc3F)cc(-c3ccncc3)nc21 [JX-003] : 37.5

// molecule CC(C)n1ncc2c(C(=O)N3CCc4cccnc43)cc(-c3cccs3)nc21 [JX-076] , assay HeLa-RW cells, CC50 value: 37.5

Fill in: HeLa-RW cells CC50 for CNS(=O)(=O)c1cccc(NC(=O)c2cc(-c3cccs3)nc3c2cnn3C(C)C)c1 [JX-053] = 12

Lab note: molecule CC(C)n1ncc2c(C(=O)Nc3cccnc3)cc(-c3cccs3)nc21 [JX-056] tested on HeLa-RW cells; recorded CC50 was 25

Here CC(C)n1ncc2c(C(=O)Nc3ccncn3)cc(-c3cccs3)nc21 [JX-043] was tested on HeLa-RW cells, and its CC50 came to 20

Observed CC50, HeLa-RW cells, CC(C)n1ncc2c(C(=O)Nc3ccc(F)cc3)cc(-c3ccsc3)nc21 [JX-030] : 25

Entry CC(C)n1ncc2c(C(=O)Nc3cccc(C(N)=O)c3)cc(-c3cccs3)nc21 [JX-064] , tested on HeLa-RW cells, has a reported CC50 of 18

Value (CC50, HeLa-RW cells) for record CC(C)n1ncc2c(C(=O)Nc3ccccn3)cc(-c3ccsc3)nc21 [JX-057] = 18

CC50 value, target or system HeLa-RW cells, for CC(C)n1ncc2c(C(=O)Nc3ccc(F)cn3)cc(-c3cccs3)nc21 [JX-075] : 37.5

Observed CC50 on HeLa-RW cells, entry CC(C)n1ncc2c(C(=O)Nc3ncccn3)cc(-c3ccsc3)nc21 [JX-058] , equals 40

Bench note, HeLa-RW cells: CC(C)n1ncc2c(C(=O)Nc3ccncc3)cc(-c3cccs3)nc21 [JX-042] , CC50 reads 6

CC50 on HeLa-RW cells for CC(C)n1ncc2c(C(=O)Nc3cncnc3)cc(-c3cccs3)nc21 [JX-066] is 18

// molecule CC(C)n1ncc2c(C(=N)Nc3ccc(F)cc3)cc(-c3cccs3)nc21 [JX-067] , assay HeLa-RW cells, CC50 value: 18
